- Tested Target: HCV polymerase 1B (Δ21 NS5B) (Hepatitis C virus genotype 1b, UniProt P26663)
- Construct: 20 to 50nM Δ21 NS5B
- Sequence (P26663 2420-2989, stated change not applied): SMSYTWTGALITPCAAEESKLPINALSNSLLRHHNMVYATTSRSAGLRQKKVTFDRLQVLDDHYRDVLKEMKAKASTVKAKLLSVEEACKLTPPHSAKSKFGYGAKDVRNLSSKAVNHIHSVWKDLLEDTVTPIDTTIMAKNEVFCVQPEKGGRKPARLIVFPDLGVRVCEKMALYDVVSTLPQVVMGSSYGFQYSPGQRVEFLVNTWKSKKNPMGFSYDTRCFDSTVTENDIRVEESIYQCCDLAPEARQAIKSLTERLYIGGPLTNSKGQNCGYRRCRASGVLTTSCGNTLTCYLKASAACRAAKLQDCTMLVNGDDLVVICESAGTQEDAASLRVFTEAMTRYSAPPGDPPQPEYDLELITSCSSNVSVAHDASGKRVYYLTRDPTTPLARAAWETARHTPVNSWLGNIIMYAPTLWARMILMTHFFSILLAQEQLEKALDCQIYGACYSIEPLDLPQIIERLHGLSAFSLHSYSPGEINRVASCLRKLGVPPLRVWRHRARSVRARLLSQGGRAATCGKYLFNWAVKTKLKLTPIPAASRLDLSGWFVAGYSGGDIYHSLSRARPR
- Test: biochemical
Property: IC50

Some solved cases for reference:
[[record]]
smiles_structure = "COc1c(-c2cccc(Cl)c2)cc(-n2ccc(=O)[nH]c2=O)cc1-c1ccc2cc(NS(C)(=O)=O)ccc2c1"
property = "IC50"
obs_value = "100 to 1000 nM"

[[record]]
smiles_structure = "COc1c(-c2ccc3ccccc3c2)cc(-n2ccc(=O)[nH]c2=O)cc1C(C)(C)C"
property = "IC50"
obs_value = "100 to 1000 nM"

[[record]]
smiles_structure = "COc1c(-c2ccc3c(c2)CC/C3=N\\NS(C)(=O)=O)cc(-n2ccc(=O)[nH]c2=O)cc1C(C)(C)C"
property = "IC50"
obs_value = "< 10 nM"

[[record]]
smiles_structure = "COC(=O)C(C)(C)c1cc(-n2ccc(=O)[nH]c2=O)cc(-c2ccc3cc(NS(C)(=O)=O)ccc3c2)c1OC"
property = "IC50"
obs_value = "100 to 1000 nM"

[[record]]
smiles_structure = "COc1ccc2cc(-c3cc(-n4ccc(=O)[nH]c4=O)cc(C(C)(C)C)c3OC)ccc2c1"
property = "IC50"
obs_value = "100 to 1000 nM"


Prompt: Recorded IC50 for COc1c(-c2ccc3cc(NS(C)(=O)=O)ccc3n2)cc(-n2ccc(=O)[nH]c2=O)cc1C(C)(C)C , please?
Completion: > 1000 nM

Prompt: # lookup: IC50 of COc1c(Br)cc(-n2ccc(=O)[nH]c2=O)cc1-c1ccc2cc(NS(C)(=O)=O)ccc2c1
Completion: 10 to 100 nM

---

- Tested Target: HCV polymerase 1B (Δ21 NS5B) (Hepatitis C virus genotype 1b, UniProt P26663)
- Construct: 20 to 50nM Δ21 NS5B
- Test: biochemical
Catalogue of IC50 values

Some entries whose results are on file:
[[record]]
smiles_structure = "COc1c(-c2ccc3nc(NS(C)(=O)=O)ccc3c2)cc(-n2ccc(=O)[nH]c2=O)cc1C(C)(C)C"
obs_value = "10 to 100 nM"

[[record]]
smiles_structure = "COC(=O)c1cc(-n2ccc(=O)[nH]c2=O)cc(-c2ccc3cc(NS(C)(=O)=O)ccc3c2)c1OC"
obs_value = "100 to 1000 nM"

[[record]]
smiles_structure = "COc1c(-c2ccc3c(C)coc3c2)cc(-n2ccc(=O)[nH]c2=O)cc1C(C)(C)C"
obs_value = "100 to 1000 nM"


Now examine the next entry.
Prompt: Would you kindly share the measured IC50 for CC(C)(C)c1cc(-n2ccc(=O)[nH]c2=O)cc(-c2ccc3cc(NS(C)(=O)=O)ccc3c2)c1Cl ?
Completion: < 10 nM

---

- Tested Target: HCV polymerase 1A (Δ21 NS5B) (Hepatitis C virus genotype 1a, UniProt P27958)
- Construct: 20 to 50nM Δ21 NS5B
- Sequence (P27958 2421-2990, stated change not applied): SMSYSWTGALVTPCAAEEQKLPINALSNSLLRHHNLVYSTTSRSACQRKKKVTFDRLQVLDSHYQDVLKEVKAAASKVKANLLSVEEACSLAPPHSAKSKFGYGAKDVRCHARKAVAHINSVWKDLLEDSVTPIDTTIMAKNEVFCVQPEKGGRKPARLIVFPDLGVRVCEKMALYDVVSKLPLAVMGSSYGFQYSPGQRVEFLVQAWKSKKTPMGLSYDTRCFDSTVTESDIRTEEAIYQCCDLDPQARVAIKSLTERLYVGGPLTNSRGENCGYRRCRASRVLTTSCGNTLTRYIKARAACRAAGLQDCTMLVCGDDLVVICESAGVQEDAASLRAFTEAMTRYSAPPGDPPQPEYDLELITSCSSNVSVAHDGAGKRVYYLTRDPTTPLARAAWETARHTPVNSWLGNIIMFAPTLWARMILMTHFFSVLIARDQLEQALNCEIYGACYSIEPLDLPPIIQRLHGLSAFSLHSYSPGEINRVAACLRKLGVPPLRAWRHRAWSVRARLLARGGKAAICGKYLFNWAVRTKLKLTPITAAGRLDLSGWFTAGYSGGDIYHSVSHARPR
- Test: HCV Polymerase Inhibition Assay (1a)
- Assay type: biochemical
Quick list: IC50 per entry.

Example compounds with recorded IC50:
[[record]]
smiles_structure = "COc1c(-c2cccc(Cl)c2)cc(-n2ccc(=O)[nH]c2=O)cc1-c1ccc2cc(NS(C)(=O)=O)ccc2c1"
property = "IC50"
obs_value = "100 to 1000 nM"

[[record]]
smiles_structure = "COc1c(-c2ccc3nc(NC(C)=O)sc3c2)cc(-n2ccc(=O)[nH]c2=O)cc1C(C)(C)C"
property = "IC50"
obs_value = "> 1000 nM"


Alright, here's another compound for you.
Prompt: Look up IC50 for this compound: COc1c(-c2ccc3nc(N)sc3c2)cc(-n2ccc(=O)[nH]c2=O)cc1C(C)(C)C
Completion: 10 to 100 nM

---

- Tested Target: HCV polymerase 1B (Δ21 NS5B) (Hepatitis C virus genotype 1b)
- Construct: 20 to 50nM Δ21 NS5B
- Test: biochemical
pIC50: −log10 of the molar value.
Property: pIC50

In the examples that follow, each entry is paired with its recorded pIC50.
[[record]]
smiles_structure = "CCOc1c(-c2ccc3cc(NS(C)(=O)=O)ccc3c2)cc(-n2ccc(=O)[nH]c2=O)cc1C(C)(C)C"
property = "pIC50"
obs_value = "> 8.00"

[[record]]
smiles_structure = "COc1c(-c2ccc3ncsc3c2)cc(-n2ccc(=O)[nH]c2=O)cc1C(C)(C)C"
property = "pIC50"
obs_value = "7.00 to 8.00"

[[record]]
smiles_structure = "COc1c(-c2ccc3c(c2)CC=C3CN(C)S(C)(=O)=O)cc(-n2ccc(=O)[nH]c2=O)cc1C(C)(C)C"
property = "pIC50"
obs_value = "7.00 to 8.00"

[[record]]
smiles_structure = "COc1c(-c2ccc3nc(NS(C)(=O)=O)sc3c2)cc(-n2ccc(=O)[nH]c2=O)cc1C(C)(C)C"
property = "pIC50"
obs_value = "7.00 to 8.00"

[[record]]
smiles_structure = "COc1c(-c2nc3ccc([N+](=O)[O-])cc3o2)cc(N2CCC(=O)NC2=O)cc1C(C)(C)C"
property = "pIC50"
obs_value = "6.00 to 7.00"

[[record]]
smiles_structure = "COc1c(-c2ccc3cc(NS(C)(=O)=O)ccc3c2)cc(-n2ccc(=O)[nH]c2=O)cc1C(F)(F)F"
property = "pIC50"
obs_value = "7.00 to 8.00"


Prompt: Quick one: pIC50 of COc1c(-c2ccoc2)cc(-n2ccc(=O)[nH]c2=O)cc1-c1ccc2cc(NS(C)(=O)=O)ccc2c1 ?
Completion: 7.00 to 8.00

---

Each record here notes measured IC50.
- Tested Target: HCV polymerase 1B (Δ21 NS5B) (Hepatitis C virus genotype 1b, UniProt P26663)
- Construct: 20 to 50nM Δ21 NS5B
- Test: biochemical

[[record]]
compound = "COc1c(-c2nc3cc(NS(C)(=O)=O)ccc3o2)cc(-n2ccc(=O)[nH]c2=O)cc1C(C)(C)C [IB-L0-2.6]"
property = "IC50"
obs_value = "10 to 100 nM"

[[record]]
compound = "COc1c(-c2ccc3c(CNS(C)(=O)=O)noc3c2)cc(-n2ccc(=O)[nH]c2=O)cc1C(C)(C)C [IB-L0-2.45]"
property = "IC50"
obs_value = "100 to 1000 nM"

[[record]]
compound = "COc1c(-c2nc3ccccc3s2)cc(N2CCC(=O)NC2=O)cc1C(C)(C)C [IA-L0-2.3]"
property = "IC50"
obs_value = "100 to 1000 nM"

[[record]]
compound = "COc1c(-c2nc3ccc(NS(C)(=O)=O)cc3o2)cc(N2CCC(=O)NC2=O)cc1C(C)(C)C [IA-L0-2.5]"
property = "IC50"
obs_value = "100 to 1000 nM"

[[record]]
compound = "COc1c(-c2ccc3nc(NC(C)=O)sc3c2)cc(-n2ccc(=O)[nH]c2=O)cc1C(C)(C)C [IB-L0-2.49]"
property = "IC50"
obs_value = "> 1000 nM"


Prompt: Entry COc1c(-c2ccc3cc(NS(C)(=O)=O)ccc3c2)cc(N2CCC(=O)NC2=O)cc1C(C)(C)C [IA-L0-2.9] : reported IC50 = ?
Completion: < 10 nM

Prompt: Fill blank: measured IC50 of the compound CCC(C)(C)c1cc(-n2ccc(=O)[nH]c2=O)cc(-c2ccc3cc(NS(C)(=O)=O)ccc3c2)c1OC [IB-L0-2.52] is ____.
Completion: 10 to 100 nM
